# ASSAY_COMMENT: LTEA_HepaRG_LDH_cytotoxicity: Cytotoxicity Assessment in the Life Technologies and Expression Analysis (LTEA) Assay (AID 2283563)
Calls of active or inactive are those of the source. The calls were made as follows: active = hit-call score of the fitted dose curve at least 0.9, where 1 is the maximum; inconclusive = response in the unintended direction; inactive = score below 0.9.
Labels: true (1) = active, false (0) = inactive

1) C[C@]12CCC(=O)C[C@@H]1CC[C@@H]1[C@@H]2CC[C@]2(C)[C@@H](O)CC[C@@H]12 :: false (0)
2) CCC(C)(C)c1ccc(O)c(C(C)(C)CC)c1 :: false (0)
3) O=C(O)C(F)(F)C(F)(F)C(F)(F)C(F)(F)C(F)(F)C(F)(F)F :: false (0)
4) CCCCCCCCc1ccc(O)cc1 :: false (0)
5) C[C@@H]1C[C@@H]([C@H](O)CC2CC(=O)NC(=O)C2)C(=O)[C@@H](C)C1 :: true (1)
6) CN(C)N=O :: false (0)
7) CC(C)(OO)c1ccccc1 :: false (0)
8) O=[N+]([O-])c1ccc(O)c([N+](=O)[O-])c1 :: true (1)
9) CCOP(=S)(OCC)SCSP(=S)(OCC)OCC :: false (0)
10) C=C(C)C(=O)[O][Sn]([CH2]CCC)([CH2]CCC)[CH2]CCC :: true (1)
11) COc1cc(-c2ccc(N)c(OC)c2)ccc1N :: false (0)
12) O=C(O)C(F)(F)C(F)(F)C(F)(F)C(F)(F)C(F)(F)C(F)(F)C(F)(F)C(F)(F)C(F)(F)C(F)(F)F :: false (0)
